The measured values listed here are drawn from the supplement of paper PMC12783771.

B1: library; numbered along this chain (parent)
chain: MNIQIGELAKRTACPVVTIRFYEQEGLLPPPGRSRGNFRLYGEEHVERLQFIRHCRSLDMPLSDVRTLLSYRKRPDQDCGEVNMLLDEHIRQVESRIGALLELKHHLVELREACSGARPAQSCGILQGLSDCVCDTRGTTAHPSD

Variants of: B1
assay-name: sfGFP reporter fluorescence (15 h) (µM FITC); higher = stronger transcriptional activation
condition-context: library round: Round 0; ligand: 30 µM Zn
In this section, each of the variants is paired with its reported sfGFP reporter fluorescence.

{"mutant-id": "C55D", "sfGFP reporter fluorescence": 0.0592}
{"mutant-id": "E7H", "sfGFP reporter fluorescence": 0.638}
{"mutant-id": "R91A", "sfGFP reporter fluorescence": 0.694}
{"mutant-id": "L68M", "sfGFP reporter fluorescence": 1.42}
{"mutant-id": "E94H", "sfGFP reporter fluorescence": 0.344}
{"mutant-id": "I97T", "sfGFP reporter fluorescence": 0.579}
{"mutant-id": "V108P", "sfGFP reporter fluorescence": 0.0621}
{"mutant-id": "D64K K104V L107C G128M", "sfGFP reporter fluorescence": 3.57}
{"mutant-id": "Y41P", "sfGFP reporter fluorescence": 0.0601}
{"mutant-id": "G128H", "sfGFP reporter fluorescence": 0.25}
{"mutant-id": "L107D", "sfGFP reporter fluorescence": 0.0579}
{"mutant-id": "D131W", "sfGFP reporter fluorescence": 0.356}
{"mutant-id": "Y22L", "sfGFP reporter fluorescence": 0.0718}
{"mutant-id": "L129E", "sfGFP reporter fluorescence": 0.0546}
{"mutant-id": "L129C", "sfGFP reporter fluorescence": 0.0544}
{"mutant-id": "L27A", "sfGFP reporter fluorescence": 0.0733}
{"mutant-id": "R39A", "sfGFP reporter fluorescence": 0.0678}
{"mutant-id": "R39D", "sfGFP reporter fluorescence": 0.0597}
{"mutant-id": "L110M", "sfGFP reporter fluorescence": 0.0574}
{"mutant-id": "L85K", "sfGFP reporter fluorescence": 0.0645}
{"mutant-id": "L129S", "sfGFP reporter fluorescence": 0.0563}
{"mutant-id": "L27K", "sfGFP reporter fluorescence": 0.0614}
{"mutant-id": "P61V", "sfGFP reporter fluorescence": 0.302}
{"mutant-id": "C134A", "sfGFP reporter fluorescence": 0.59}
{"mutant-id": "L107C G128I", "sfGFP reporter fluorescence": 4.14}
{"mutant-id": "L62S", "sfGFP reporter fluorescence": 0.0744}
{"mutant-id": "V82A", "sfGFP reporter fluorescence": 0.0786}
{"mutant-id": "N83E", "sfGFP reporter fluorescence": 0.141}
{"mutant-id": "L62R", "sfGFP reporter fluorescence": 0.0704}
{"mutant-id": "V108N", "sfGFP reporter fluorescence": 0.611}
{"mutant-id": "R39F", "sfGFP reporter fluorescence": 0.0555}
{"mutant-id": "R111N", "sfGFP reporter fluorescence": 0.391}
{"mutant-id": "V16Y", "sfGFP reporter fluorescence": 0.119}
{"mutant-id": "L110G", "sfGFP reporter fluorescence": 0.0531}
{"mutant-id": "D64Y", "sfGFP reporter fluorescence": 3.81}
{"mutant-id": "E112I", "sfGFP reporter fluorescence": 0.282}
{"mutant-id": "P61N D64K G128M", "sfGFP reporter fluorescence": 4.15}
{"mutant-id": "Y22V", "sfGFP reporter fluorescence": 0.0641}
{"mutant-id": "M60T", "sfGFP reporter fluorescence": 0.0645}
{"mutant-id": "P15D", "sfGFP reporter fluorescence": 0.286}
{"mutant-id": "L62Q", "sfGFP reporter fluorescence": 0.0819}
{"mutant-id": "G36M", "sfGFP reporter fluorescence": 0.236}
{"mutant-id": "L129Q", "sfGFP reporter fluorescence": 0.0541}
{"mutant-id": "E43L", "sfGFP reporter fluorescence": 1.01}
{"mutant-id": "V16S", "sfGFP reporter fluorescence": 1.22}
{"mutant-id": "D59A", "sfGFP reporter fluorescence": 0.291}
{"mutant-id": "L126C", "sfGFP reporter fluorescence": 0.0563}
{"mutant-id": "V82D", "sfGFP reporter fluorescence": 0.055}
{"mutant-id": "G6W", "sfGFP reporter fluorescence": 0.0621}
{"mutant-id": "H89G", "sfGFP reporter fluorescence": 0.0577}
{"mutant-id": "M60L K104V L107C G128M", "sfGFP reporter fluorescence": 3.64}
{"mutant-id": "M60L K104V L107C G128I", "sfGFP reporter fluorescence": 3.12}
{"mutant-id": "D64K K104V L107C", "sfGFP reporter fluorescence": 4.1}
{"mutant-id": "M60L D64K", "sfGFP reporter fluorescence": 4.63}
{"mutant-id": "Y41G", "sfGFP reporter fluorescence": 0.0579}
{"mutant-id": "G32A", "sfGFP reporter fluorescence": 0.467}
{"mutant-id": "Q127A", "sfGFP reporter fluorescence": 0.299}
{"mutant-id": "C134G", "sfGFP reporter fluorescence": 1.35}
{"mutant-id": "I125M", "sfGFP reporter fluorescence": 0.0557}
{"mutant-id": "Q24A", "sfGFP reporter fluorescence": 0.534}
{"mutant-id": "C123F", "sfGFP reporter fluorescence": 0.0528}
{"mutant-id": "L126A", "sfGFP reporter fluorescence": 0.0691}
{"mutant-id": "L110T", "sfGFP reporter fluorescence": 0.158}
{"mutant-id": "V16R", "sfGFP reporter fluorescence": 2.03}
{"mutant-id": "I125F", "sfGFP reporter fluorescence": 0.0526}
{"mutant-id": "L126F", "sfGFP reporter fluorescence": 0.0586}
{"mutant-id": "I90Q", "sfGFP reporter fluorescence": 0.637}
{"mutant-id": "L27D", "sfGFP reporter fluorescence": 0.0574}
{"mutant-id": "E112N", "sfGFP reporter fluorescence": 1.04}
{"mutant-id": "D64A", "sfGFP reporter fluorescence": 2.22}
{"mutant-id": "E109G", "sfGFP reporter fluorescence": 0.793}
{"mutant-id": "C79S", "sfGFP reporter fluorescence": 0.055}
{"mutant-id": "C134D", "sfGFP reporter fluorescence": 1}
{"mutant-id": "V46K", "sfGFP reporter fluorescence": 0.908}
{"mutant-id": "M60I", "sfGFP reporter fluorescence": 2.58}
{"mutant-id": "P61G", "sfGFP reporter fluorescence": 2.2}
{"mutant-id": "K104F", "sfGFP reporter fluorescence": 0.889}
{"mutant-id": "L85H", "sfGFP reporter fluorescence": 0.0629}
{"mutant-id": "V108H", "sfGFP reporter fluorescence": 0.846}
{"mutant-id": "D64M", "sfGFP reporter fluorescence": 4.15}
{"mutant-id": "L107N", "sfGFP reporter fluorescence": 0.511}
{"mutant-id": "N83P", "sfGFP reporter fluorescence": 0.0552}
{"mutant-id": "L62G", "sfGFP reporter fluorescence": 0.0614}
{"mutant-id": "H89Q", "sfGFP reporter fluorescence": 1.3}
{"mutant-id": "R66A", "sfGFP reporter fluorescence": 0.616}
{"mutant-id": "L27E", "sfGFP reporter fluorescence": 0.0577}
{"mutant-id": "L126S", "sfGFP reporter fluorescence": 0.0544}
{"mutant-id": "E112M", "sfGFP reporter fluorescence": 0.946}
{"mutant-id": "P61N L107C", "sfGFP reporter fluorescence": 3.92}
{"mutant-id": "E94C", "sfGFP reporter fluorescence": 0.946}
{"mutant-id": "D131H", "sfGFP reporter fluorescence": 0.996}
